Values were extracted from patent US20240368163A1.

- Tested on: Target C
- test_name: Splicing RT-qPCR panel, Target C canonical junction (CJ) mRNA
- Format: cell-based, human
- measurement_setup: Homo sapiens, RT-qPCR panel, canonical junction mRNA; compound concentration having 50% response in CJ decrease; read-out: Target C IC50 (decrease in CJ mRNA levels)
pIC50: −log10 of the molar value.
measured_parameter: pIC50

CN(c1ccc(-c2ccc(-c3ccc(=O)n(C)c3)c3ncsc23)nn1)C1CC(C)(C)NC(C)(C)C1 [Compound 281] ... < 5.00
c1nc2c(-c3cn[nH]c3)ccc(-c3ccc(O[C@@H]4C[C@H]5CC[C@@H](C4)N5)nn3)c2s1 [Compound 184] ... 6.00 to 7.00
CN(c1ccc(-c2ccc(-c3cn[nH]c3)c3ncsc23)nn1)[C@H]1C[C@]2(C)CC[C@](C)(C1)N2 [Compound 204] ... > 7.00
CN(c1ncc(-c2ccc(-c3cn[nH]c3)c3ncsc23)nn1)[C@H]1C[C@]2(C)CC[C@](C)(C1)N2 [Compound 424] ... > 7.00

Alright, here's another compound for you.
Sure, the documented pIC50 for CN(c1ccc(-c2ccc(-c3cnn(C4CC4)n3)c3cn[nH]c23)nn1)[C@@H]1C[C@H]2CC[C@@H](C1)N2 [Compound 312] is 5.00 to 6.00

---

- System: HTT
- test_name: Splicing RT-qPCR assay, HTT mRNA canonical junction (CJ) and alternative junction (AJ)
- Format: cell-based, human
- measurement_setup: Homo sapiens, RT-qPCR panel, canonical junction mRNA; compound concentration having 50% response in CJ decrease; read-out: HTT IC50 (decrease in CJ mRNA levels)
pIC50: −log10 of the molar value.
measured_parameter: pIC50

c1nc2c(-c3cn[nH]c3)ccc(-c3ccc(N4CCC5(CCNCC5)C4)nn3)c2s1 [Compound 190] ... < 5.00

# value of pIC50, HTT, item CN(c1ccc(-c2cc(F)c(-c3cnn(C)c3)c3cn[nH]c23)nn1)[C@@H]1C[C@H]2CC[C@@H](C1)N2 [Compound 291] = > 7.00

---

- Test system: Target C
- test_name: Splicing RT-qPCR panel, Target C canonical junction (CJ) mRNA
- Format: cell-based, human
- measurement_setup: Homo sapiens, gene panel, CJ qPCR, protocol of Example 142; read-out: Target C IC50 (decrease in CJ mRNA levels)
measured_parameter: IC50

COc1nc(-c2ccc(N3CCC(NC4CC4)C3)nn2)ccc1-n1cccn1 (stereo not drawn) ... > 10000 nM
CCOc1nc(-c2ccc(OC3CC(C)(C)NC(C)(C)C3)nn2)cc(F)c1-c1cn[nH]c1 ... < 100 nM
CN(c1ccc(-c2ccc(-c3cn[nH]c3)c(C#N)n2)nn1)[C@@H]1C[C@H]2CC[C@@H](C1)N2 ... 100 to 1000 nM

Recorded result, COc1nc(-c2ccc(N3CCC(NC(C)(C)C)C3)nn2)ccc1-c1cn[nH]c1 (stereo not drawn) , IC50: 100 to 1000 nM

# compound "CC(C)Oc1nc(-c2ccc(N(C)[C@@H]3C[C@H]4CC[C@@H](C3)N4)nn2)ccc1-c1cn[nH]c1" ; its IC50 = 1000 to 10000 nM

// sample COc1nc(-c2ccc(N(C)C3C[C@H]4CC[C@@H](C3)N4)nn2)ccc1-c1cnn(C)n1 (stereo partly drawn) , its IC50 was 100 to 1000 nM
